Measured target: T1, recombinant human tau (human, UniProt P10636-6 1-383, limits assumed)
T1 construct: also called recombinant tau
T1 sequence (P10636 other isoform, or with tags, fused parts or gaps limits assumed): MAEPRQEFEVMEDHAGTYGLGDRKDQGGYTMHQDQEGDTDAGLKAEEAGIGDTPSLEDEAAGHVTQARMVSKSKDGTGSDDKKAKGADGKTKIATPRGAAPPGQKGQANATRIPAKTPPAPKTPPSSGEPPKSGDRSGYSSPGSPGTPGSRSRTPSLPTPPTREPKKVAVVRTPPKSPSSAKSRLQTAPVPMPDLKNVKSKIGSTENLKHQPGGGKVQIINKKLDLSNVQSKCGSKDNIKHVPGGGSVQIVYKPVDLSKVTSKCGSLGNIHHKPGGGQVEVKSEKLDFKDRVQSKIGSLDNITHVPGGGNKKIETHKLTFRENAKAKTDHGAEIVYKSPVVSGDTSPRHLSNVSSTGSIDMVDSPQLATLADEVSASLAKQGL
Assay summary: SPR, Biacore T200, antibody captured by anti-human antibody, tau as analyte, single cycle, 1:1 fit
Listing: koff of selected binders
State the answer as a number, implicitly in s⁻¹.

These solved cases illustrate the format of a correct answer.
Binder	koff [s⁻¹]
Hu3D6VHvb5 / Hu3D6VLvb3 (antibody, V domains shown, Humanized 3D6 variant, expressed as intact antibody in HEK-293 cells; also called VHvb5/VLvb3) VH: EVQLVQSGAEVVKPGATVKISCKASGFTIKDYYLHWVRQRPGKGLEWIGWIDPEDGETIYDPKFQGRVTITADTSTDTAYMELSSLRSEDTAVYYCSTLDFWGQGTLVTVSS VL: DVVMTQSPLSLSVTLGEPASISCRSSQSLLDSDGKTYLNWLQQRPGQSPRRLIYLVSKLDSGVPDRFSGSGSGTDFTLKISRVEAEDVGVYYCWQGTHFPYTFGQGTKLEIKR	0.0028
Hu3D6VHvb4 / Hu3D6VLvb3 (antibody, V domains shown, Humanized 3D6 variant, expressed as intact antibody in HEK-293 cells; also called VHvb4/VLvb3) VH: EVQLVQSGAEVVKPGATVKISCKASGFTIKDYYLHWVRQRPGKGLEWIGWIDPENGDTIYDPKFQGRVTITADTSTDTAYMELSSLRSEDTAVYYCSTLDFWGQGTLVTVSS VL: DVVMTQSPLSLSVTLGEPASISCRSSQSLLDSDGKTYLNWLQQRPGQSPRRLIYLVSKLDSGVPDRFSGSGSGTDFTLKISRVEAEDVGVYYCWQGTHFPYTFGQGTKLEIKR	0.0034
Hu3D6VHvb7 / Hu3D6VLvb3 (antibody, V domains shown, Humanized 3D6 variant, expressed as intact antibody in HEK-293 cells; also called VHvb7/VLvb3) VH: EVQLVQSGAEVVKPGATVKISCKASGFTIKDYYLHWVRQRPGKGLEWIGWIDPEDGETVYDPKFQGRVTITADTSTDTAYMELSSLRSEDTAVYYCSTLDFWGQGTLVTVSS VL: DVVMTQSPLSLSVTLGEPASISCRSSQSLLDSDGKTYLNWLQQRPGQSPRRLIYLVSKLDSGVPDRFSGSGSGTDFTLKISRVEAEDVGVYYCWQGTHFPYTFGQGTKLEIKR	0.00077
Hu3D6VHvb6 / Hu3D6VLvb3 (antibody, V domains shown, Humanized 3D6 variant, expressed as intact antibody in HEK-293 cells; also called VHvb6/VLvb3) VH: EVQLVQSGAEVVKPGATVKISCKASGFTIKDYYLHWVRQRPGKGLEWIGWIDPEDGETVYDPKFQGRVTITADTSTDTAYMELSSLRSEDTAVYFCSTLDFWGQGTLVTVSS VL: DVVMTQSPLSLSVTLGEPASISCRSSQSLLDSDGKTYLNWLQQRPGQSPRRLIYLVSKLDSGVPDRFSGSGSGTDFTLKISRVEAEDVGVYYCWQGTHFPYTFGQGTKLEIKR	0.000538
Hu3D6VHvb3 / Hu3D6VLvb3 (antibody, V domains shown, Humanized 3D6 variant, expressed as intact antibody in HEK-293 cells; also called VHvb3/VLvb3) VH: EVQLVQSGAEVVKPGATVKISCKASGFNIKDYYLHWVRQRPGKGLEWIGWIDPENGDTIYDPKFQGRATITADTSTDTAYMELSSLRSEDTAVYYCSTLDFWGQGTLVTVSS VL: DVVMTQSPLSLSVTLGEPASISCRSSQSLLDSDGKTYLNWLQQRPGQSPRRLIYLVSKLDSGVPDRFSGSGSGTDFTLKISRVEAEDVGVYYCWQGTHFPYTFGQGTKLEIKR	0.0018

Turning now to a further binder:
Inquiry: Consider the binder Hu3D6VHvb2 / Hu3D6VLvb3 (antibody, V domains shown, Humanized 3D6 variant, expressed as intact antibody in HEK-293 cells; also called VHvb2/VLvb3) VH: EVQLVQSGAEVVKPGASVKISCKASGFNIKDYYLHWVRQRPGKGLEWIGWIDPENGDTVYDPKFQGRATITADTSTDTAYLELSSLTSEDTAVYFCSTLDFWGQGTLVTVSS VL: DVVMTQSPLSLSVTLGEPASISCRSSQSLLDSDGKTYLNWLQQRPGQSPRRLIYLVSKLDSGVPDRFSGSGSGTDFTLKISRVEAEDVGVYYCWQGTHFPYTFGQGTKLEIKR . State its measured koff.
Reply text: 0.0003

These entries and their values trace back to patent US20220153821A1.
